# credit: PubChem BioAssay

# Method Description: OD615 S. cerevisiae growth inhibition, permissive medium, pilot counter-assay, permissive growth control for S. cerevisiae lifespan shortening project (AID 705)
# Settings: OD615, 24 h, at 10 µM, hits give high values
Please mark rule met if the recorded growth inhibition is equal to or greater than -10%, and rule not met if it falls below.

Observe how each entry below is paired with its result.
(Q) Could you please find out whether CC1CCCN(Cc2nc3c(c(=O)n(C)c(=O)n3C)n2Cc2c(F)cccc2Cl)C1 (stereo unspecified) has growth inhibition that meets -10% or exceeds it?
(A) rule met

(Q) Does the molecule COc1ccc(C(C#N)(CCC#N)CCC#N)cc1OC have recorded growth inhibition that is -10% or more?
(A) rule not met

(Q) I'd appreciate it if you could say whether Cc1ccc(OCCn2c(C)c(/C=N/n3cnnc3)c3ccccc32)cc1 has growth inhibition at least equal to -10%.
(A) rule met

(Q) Is growth inhibition for O=C(O)CC1C(=O)NCCN1CCCc1ccccc1 (stereo unspecified) at or above -10%?
(A) rule not met

(Q) Could you verify whether the entry CCCC(=O)c1ccc(N2CCOCC2)c(F)c1 shows growth inhibition of no less than -10%?
(A) rule met

(Q) Hello, I need to know if CC(=O)Oc1c(Cl)c(N2CCOCC2)c(OC(C)=O)c2ccccc12 has measured growth inhibition not below -10%. Thanks!
(A) rule not met

Next:
(Q) Confirm if growth inhibition reported for the molecule CC(=O)N1CCC(N(CCN2CCOCC2)C(=O)Nc2ccc(Cl)c(Cl)c2)CC1 is -10% or above.
(A) rule met

(Q) Answer whether growth inhibition of Cc1cccc(-c2nc(CS(=O)CC(=O)N3CCc4ccccc4C3)c(C)o2)c1 (stereo unspecified) is greater than or equal to -10%.
(A) rule met

(Q) Would you say CCCOc1ccc(N2C(=O)CC(N3CCN(c4ccccc4F)CC3)C2=O)cc1 (stereo unspecified) shows growth inhibition at minimum -10%?
(A) rule met

(Q) State whether the measured growth inhibition reaches -10%, counting equality as reaching it, for CC(=O)NCC(=O)N(c1ccccc1)C1(C(=O)NC2CCCCC2)CCCCC1
(A) rule met
